- System: muMax20 (Max(13-93) K31hArg/K57hArg, M65Nle)
- test_name: PBM 8-mer E-score (E-score (rank enrichment, -0.5 to 0.5)); higher = stronger preferential binding
In all, about 33,000 sequences were measured (“E-score (rank enrichment, -0.5 to 0.5)”: median about -0.0068, highest 2% from about 0.24 on). This excerpt belongs to a sample that is enriched for the highest values.
Think of 0.1 as a floor: if PBM 8-mer E-score stands on it or above, it is 1; beneath it, 0.

Input: Quick check: does `TGTAGTAA` have PBM 8-mer E-score greater than or equal to 0.1?
Output: 1

Input: Quick check: does `AAAACGGC` have PBM 8-mer E-score greater than or equal to 0.1?
Output: 1

Input: Quick check: does `AGTTATAA` have PBM 8-mer E-score greater than or equal to 0.1?
Output: 1

Input: Quick check: does `AGTACATA` have PBM 8-mer E-score greater than or equal to 0.1?
Output: 1

Input: Quick check: does `CATAGTCA` have PBM 8-mer E-score greater than or equal to 0.1?
Output: 0

Input: Quick check: does `ATATTGAG` have PBM 8-mer E-score greater than or equal to 0.1?
Output: 0

Input: Quick check: does `CCAAAACC` have PBM 8-mer E-score greater than or equal to 0.1?
Output: 1

Input: Quick check: does `AAACGGCC` have PBM 8-mer E-score greater than or equal to 0.1?
Output: 1

Input: Quick check: does `ATTAGTAA` have PBM 8-mer E-score greater than or equal to 0.1?
Output: 1

Input: Quick check: does `TATAGTCA` have PBM 8-mer E-score greater than or equal to 0.1?
Output: 1

Input: Quick check: does `AGTTATAC` have PBM 8-mer E-score greater than or equal to 0.1?
Output: 1

Input: Quick check: does `GTATTGAA` have PBM 8-mer E-score greater than or equal to 0.1?
Output: 1

Input: Quick check: does `TATAGTAA` have PBM 8-mer E-score greater than or equal to 0.1?
Output: 1

Input: Quick check: does `ATATTGAC` have PBM 8-mer E-score greater than or equal to 0.1?
Output: 0

Input: Quick check: does `GAACCGAA` have PBM 8-mer E-score greater than or equal to 0.1?
Output: 0

Input: Quick check: does `GGAAAAAA` have PBM 8-mer E-score greater than or equal to 0.1?
Output: 1

Input: Quick check: does `GACGGGGA` have PBM 8-mer E-score greater than or equal to 0.1?
Output: 0

Input: Quick check: does `ATATGGGG` have PBM 8-mer E-score greater than or equal to 0.1?
Output: 0

Input: Quick check: does `ATACTACA` have PBM 8-mer E-score greater than or equal to 0.1?
Output: 1

Input: Quick check: does `CGTAGTAA` have PBM 8-mer E-score greater than or equal to 0.1?
Output: 1

Input: Quick check: does `GAAAAAAC` have PBM 8-mer E-score greater than or equal to 0.1?
Output: 1

Input: Quick check: does `GCCCACAC` have PBM 8-mer E-score greater than or equal to 0.1?
Output: 0

Input: Quick check: does `CATAGTAA` have PBM 8-mer E-score greater than or equal to 0.1?
Output: 1

Input: Quick check: does `ACCCACCA` have PBM 8-mer E-score greater than or equal to 0.1?
Output: 0

Input: Quick check: does `AAGACCCT` have PBM 8-mer E-score greater than or equal to 0.1?
Output: 0

Input: Quick check: does `ATATTCAA` have PBM 8-mer E-score greater than or equal to 0.1?
Output: 1

Input: Quick check: does `CAACGGCC` have PBM 8-mer E-score greater than or equal to 0.1?
Output: 0

Input: Quick check: does `ATATTCAC` have PBM 8-mer E-score greater than or equal to 0.1?
Output: 1

Input: Quick check: does `ACGACTCA` have PBM 8-mer E-score greater than or equal to 0.1?
Output: 0

Input: Quick check: does `AAAGAAAG` have PBM 8-mer E-score greater than or equal to 0.1?
Output: 0

Input: Quick check: does `GAAAAAAA` have PBM 8-mer E-score greater than or equal to 0.1?
Output: 1

Input: Quick check: does `TCCCCGCA` have PBM 8-mer E-score greater than or equal to 0.1?
Output: 0

Input: Quick check: does `CAAAACCC` have PBM 8-mer E-score greater than or equal to 0.1?
Output: 1

Input: Quick check: does `CAAAAACC` have PBM 8-mer E-score greater than or equal to 0.1?
Output: 1

Input: Quick check: does `CTGTTTGA` have PBM 8-mer E-score greater than or equal to 0.1?
Output: 1

Input: Quick check: does `GCCCACCA` have PBM 8-mer E-score greater than or equal to 0.1?
Output: 0
